Assay: chemical genetic growth profiling, strain panel (AID 1159580);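 further: tested at 20 µM; growth read once vehicle control cultures reached saturation at 30 °C; 1 = growth at the plate median or of vehicle wells; lower values mean less growth of the strain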
Conditions: S. cerevisiae deletion strains, growth OD, locus YNL128W, strain TEP1
In all, about 5,500 compounds went through this assay and about 2,000 (36%) were called active. Roughly 18% stayed inconclusive and do not appear here. No stated cut-off is given here; in the data, active means normalized growth mostly below about 0.91 (no sharp cut-off); inconclusive means no clear call, values can overlap the other calls; inactive means mostly above about 0.92. The list shows a part of the results.
The categories you may choose from are active, inactive

Task item: Assay result, entry "O=C(N[C@@H](CO)[C@H](O)c1ccc([N+](=O)[O-])cc1)C(Cl)Cl" — outcome?
Reply: inactive

Task item: Assay result, entry "CC(C)[C@@H]1CC[C@@H](C)CC1=O" — outcome?
Reply: inactive

Task item: Assay result, entry CCCC(=O)Nc1ccc(OCC(O)CNC(C)C)c(C(C)=O)c1 (configuration not stated) — outcome?
Reply: inactive

Task item: Assay result, entry NC(Cc1ccc(Cl)cc1)C(=O)O (configuration not stated) — outcome?
Reply: inactive

Task item: Assay result, entry "O=c1c(O)c(-c2ccccc2)oc2cc(O)ccc12" — outcome?
Reply: active

Task item: Assay result, entry "Cc1cc(N=C(N)N=C(N)N)no1" — outcome?
Reply: inactive

Task item: Assay result, entry CCCN1CCCC2Cc3[nH]ncc3CC21 (configuration not stated) — outcome?
Reply: inactive

###

Assay: chemical genetic growth profiling, strain panel (AID 1159580)
Details: S. cerevisiae deletion strains, growth OD, locus YNR049C, strain mso1, hits give low values
About 2,000 (36%) of roughly 5,500 compounds were called active. Inconclusive results (about 18%) are left out. Some of the results follow.
Please go through the items and note down their normalized growth.
Answers are plain numbers.

Previously resolved entries follow.
Task item: Report normalized growth for "CCCCCCCCCCCCCCCC(=O)OC[C@H](NC(=O)C(Cl)Cl)[C@H](O)c1ccc([N+](=O)[O-])cc1" please.
Reply: 1.04

Task item: Report normalized growth for "CCCCCC/C=C\CCCCCCCc1cccc(O)c1C(=O)O" please.
Reply: 0.973

Task item: Report normalized growth for CC(=CC1CCC(C)C2CCC(C)=C12)C(=O)O (configuration not stated) please.
Reply: 0.941

Task item: Report normalized growth for CC(NC(C)(C)C)C(=O)c1cccc(Cl)c1 (configuration not stated) please.
Reply: 1.01

Task item: Report normalized growth for "O=C1C=CC(=O)c2ccccc21" please.
Reply: 0.0752

Required: normalized growth, one value per compound below.
1. CC(=O)c1ccc[nH]1
2. O=C(N[C@@H](CO)[C@H](O)c1ccc([N+](=O)[O-])cc1)C(Cl)Cl
3. C=CC[C@@H]1/C=C(\C)C[C@H](C)C[C@H](OC)[C@H]2O[C@@](O)(C(=O)C(=O)N3CCCC[C@H]3C(=O)O[C@H](/C(C)=C/[C@@H]3CC[C@@H](O)[C@H](OC)C3)[C@H](C)[C@@H](O)CC1=O)[C@H](C)C[C@@H]2OC
4. CC(=O)CCCCn1c(=O)c2c(ncn2C)n(C)c1=O
5. CC(=O)c1c(O)cc(O)cc1O
6. Oc1cc2c(cc1O)C(c1ccccc1)CNCC2 (configuration not stated)
7. O=c1c(O)c(-c2ccccc2)oc2ccc3occc3c12

Reply:
1. 1.01
2. 1.01
3. 1.03
4. 1.01
5. 0.978
6. 1
7. 0.93

###

Experiment: chemical genetic growth profiling, strain panel (AID 1159580);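 further: tested at 20 µM; growth read once vehicle control cultures reached saturation at 30 °C; 1 = growth at the plate median or of vehicle wells; lower values mean less growth of the strain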
Settings: S. cerevisiae deletion strains, growth OD, locus YOR231W, strain MKK1, hits give low values
The whole screen tested about 5,500 compounds, of which about 2,000 (36%) were called active. Inconclusive results (about 18%) are left out. The list shows a part of the results.
REPORTED ENDPOINT: normalized growth
Answers are plain numbers.

Previously resolved entries follow.
Task item: Report normalized growth for "O=C1c2ccccc2C(=O)c2sccc21" please.
Reply: 0.206

Task item: Report normalized growth for "COc1cc(Cc2cnc(N)nc2N)cc(OC)c1OC" please.
Reply: 0.993

Task item: Report normalized growth for "CON" please.
Reply: 1.04

Task item: Report normalized growth for COC(=O)C[C@H]1C(C)(C)[C@@H](OC(C)=O)[C@@H]2CC3=C4CC(=O)O[C@@H](c5ccoc5)[C@]4(C)CCC3[C@@]1(C)C2=O (stereo not given in full) please.
Reply: 0.988

Task item: Report normalized growth for "COc1ccc(NS(=O)(=O)c2ccc(N)cc2)nn1" please.
Reply: 0.998

Required: normalized growth, one value per compound below.
1. Cc1cc(Sc2c([N+](=O)[O-])cc(C(F)(F)F)cc2[N+](=O)[O-])c(Cl)cc1Cl
2. CCCCN(CC)c1c([N+](=O)[O-])cc(C(F)(F)F)cc1[N+](=O)[O-]
3. Cc1cc(Oc2c([N+](=O)[O-])cc(C(F)(F)F)cc2[N+](=O)[O-])c2c(Cl)ccc(C)c2n1
4. O=C1C(NCc2ccccc2)=C(NCc2ccccc2)C(=O)c2ccccc21
5. O=C(O)CC[N+](=O)[O-]
6. COCC1=C(C(=O)OC(C)OC(=O)OC(C)C)N2C(=O)[C@@H](NC(=O)/C(=N\OC)c3csc(N)n3)[C@H]2SC1 (stereo not given in full)
7. CC(=O)OC[C@@]1(O)C[C@@]23CCC4c5ccoc5CC[C@]4(C)C2CC[C@@H]1C3 (stereo not given in full)
8. NC(Cc1ccc(Cl)cc1)C(=O)O (stereo not given)

Reply:
[0.976, 1.06, 0.418, 0.954, 0.971, 0.973, 0.872, 0.991]

Required: normalized growth, one value per compound below.
1. C[N+]1(C)CCCC(OC(=O)C(O)(c2ccccc2)c2ccccc2)C1 (stereo not given)
2. C=CC[C@@H]1/C=C(\C)C[C@H](C)C[C@H](OC)[C@H]2O[C@@](O)(C(=O)C(=O)N3CCCC[C@H]3C(=O)O[C@H](/C(C)=C/[C@@H]3CC[C@@H](O)[C@H](OC)C3)[C@H](C)[C@@H](O)CC1=O)[C@H](C)C[C@@H]2OC
3. CCCN(CCC)c1c([N+](=O)[O-])cc(C(F)(F)F)cc1[N+](=O)[O-]
4. O=C(c1ccccc1)c1ccc2n1CCC2C(=O)O (stereo not given)
5. COc1ccc(Oc2ccc([N+](=O)[O-])cc2C(=O)O/N=C(/N)c2ccc(C(F)(F)F)cc2)cc1

Reply:
1: 1.02; 2: 0.7; 3: 0.986; 4: 1.02; 5: 0.985

Required: normalized growth, one value per compound below.
1. CC(=O)Nc1c(I)cc(I)c(C(=O)O)c1I
2. Cc1cc2nc3c(=O)[nH]c(=O)nc-3n(CC(O)C(O)C(O)CO)c2cc1C (stereo not given)

Reply:
1. 1.02
2. 0.966

###

Assay: chemical genetic growth profiling, strain panel (AID 1159580);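 further: tested at 20 µM; growth read once vehicle control cultures reached saturation at 30 °C; 1 = growth at the plate median or of vehicle wells; lower values mean less growth of the strain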
Settings: S. cerevisiae deletion strains, growth OD, locus YNL207W, strain RIO2
Out of some 5,500 compounds screened, about 2,000 (36%) were called active. Inconclusive results (about 18%) are left out. No stated cut-off is given here; in the data, active means normalized growth mostly below about 0.91 (no sharp cut-off); inconclusive means no clear call, values can overlap the other calls; inactive means mostly above about 0.92. Some of the results follow.
The categories you may choose from are Y for active, N for inactive

Examples with answers:
Task item: Assay result, entry "FC(F)(F)c1ccncc1-c1nc(-c2ccc(Cl)cc2)cs1" — outcome?
Reply: N

Task item: Assay result, entry "O=C(NCc1ccc2c(c1)OCO2)c1cc2ccccc2s1" — outcome?
Reply: Y

Task item: Assay result, entry CCOC(=O)C(O)(c1ccc(NC(=O)c2ccc(Cl)c(Cl)c2)cc1)C(F)(F)F (configuration not stated) — outcome?
Reply: N

Task item: Assay result, entry "O=C1C(NCc2ccccc2)=C(NCc2ccccc2)C(=O)c2ccccc21" — outcome?
Reply: Y

Task item: Assay result, entry "Cc1ccc2nc3c(nc2c1)-c1ccccc1C3=O" — outcome?
Reply: N

Further cases:
Task item: Assay result, entry "N/C(=N/OCc1c(F)cccc1Cl)c1ccc(Cl)cc1" — outcome?
Reply: N

###

Test: chemical genetic growth profiling, strain panel (AID 1159580);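 further: tested at 20 µM; growth read once vehicle control cultures reached saturation at 30 °C; 1 = growth at the plate median or of vehicle wells; lower values mean less growth of the strain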
Conditions: S. cerevisiae deletion strains, growth OD, locus YAL013W, strain DEP1, hits give low values
Out of some 5,500 compounds screened, about 2,000 (36%) were called active. Inconclusive results (about 18%) are left out. The list shows a part of the results.
REPORTED ENDPOINT: normalized growth
Numbers only.

Task item: Report normalized growth for "c1ccc2nc(C3=NCCN3)ccc2c1" please.
Reply: 0.99

Task item: Report normalized growth for NC(=O)CN1CC(O)CC1=O (stereo unspecified) please.
Reply: 1

Task item: Report normalized growth for "N[C@@H](Cn1ccc(=O)[nH]c1=O)C(=O)O" please.
Reply: 0.988

Task item: Report normalized growth for "Cc1cc(S(=O)(=O)NCCNc2nccc(C(F)(F)F)n2)c(C)cc1Cl" please.
Reply: 1.01

Task item: Report normalized growth for "NC(=O)C1=C(O)C(=O)N(C2CCCCC2)C1" please.
Reply: 0.992

Required: normalized growth, one value per molecule below.
1. Cc1c(-c2csc(-c3ccc(Cl)cc3)n2)sc2ccc(Cl)cc12
2. CON
3. O=C(NNC(=S)NC1CC2C=CC1C2)c1cccnc1 (stereo unspecified)
4. O=c1onc2n1-c1cc(Br)ccc1OC2
5. COc1ccccc1C1CCN(c2ncnc3scc(-c4ccccc4)c23)CC1
6. c1cnc2c(c1)ccc1cccnc12
7. O=C(NNC(=O)c1ccc[nH]1)Nc1cc(Cl)cc(Cl)c1
8. CC(=O)OCC1=C(C(=O)O)N2C(=O)[C@@H](NC(=O)CSc3ccncc3)[C@H]2SC1

Reply:
1. 1.03
2. 0.992
3. 0.985
4. 0.994
5. 1
6. 0.0762
7. 1.01
8. 0.988

Required: normalized growth, one value per molecule below.
1. CC(C)Cn1c(=O)n(C)c(=O)c2[nH]cnc21
2. CC(=O)OCCCCN1C(=O)c2ccccc2C1=O
3. FC(F)(F)c1cc(-c2ccco2)nc2cc(-c3ccco3)nn12
4. N/C(=N/O)c1cnccc1C(F)(F)F
5. Cc1c(C)c(C)c(S(=O)(=O)Nc2ccccc2N)c(C)c1C

Reply:
1. 0.999
2. 0.995
3. 0.869
4. 0.987
5. 1.01

Required: normalized growth, one value per molecule below.
1. CCOC(=O)c1cnc(SCC(=O)c2ccc(Cl)cc2Cl)[nH]1
2. Clc1cc(Cl)cc(Br)c1
3. Cc1cc(O)c2c(c1)C(=O)c1cc(O)cc(O)c1C2=O
4. O=C(CNc1cccc(Cl)c1)c1ccc(Cl)cc1
5. O=C1c2ccccc2C(=O)N1CNc1cccc(Cl)c1
6. COC(=O)[C@H](NC(=O)c1cc(-c2ccccc2)nc2ccccc12)c1ccccc1
7. CN(C)c1cc2c(Nc3ccc4c(cnn4Cc4ccccc4)c3)ncnc2cn1
8. C=CC1CN2CCC1CC2C(OC(C)=O)c1ccnc2ccc(OC)cc12 (stereo unspecified)

Reply:
1: 1; 2: 1.03; 3: 0.868; 4: 0.971; 5: 0.983; 6: 1.02; 7: 0.994; 8: 1.01
